Reference for the values: paper PMC9320114

Molecular target: murine acetylcholinesterase (mAChE) (Mus musculus)
Sequence (P21836 32-614): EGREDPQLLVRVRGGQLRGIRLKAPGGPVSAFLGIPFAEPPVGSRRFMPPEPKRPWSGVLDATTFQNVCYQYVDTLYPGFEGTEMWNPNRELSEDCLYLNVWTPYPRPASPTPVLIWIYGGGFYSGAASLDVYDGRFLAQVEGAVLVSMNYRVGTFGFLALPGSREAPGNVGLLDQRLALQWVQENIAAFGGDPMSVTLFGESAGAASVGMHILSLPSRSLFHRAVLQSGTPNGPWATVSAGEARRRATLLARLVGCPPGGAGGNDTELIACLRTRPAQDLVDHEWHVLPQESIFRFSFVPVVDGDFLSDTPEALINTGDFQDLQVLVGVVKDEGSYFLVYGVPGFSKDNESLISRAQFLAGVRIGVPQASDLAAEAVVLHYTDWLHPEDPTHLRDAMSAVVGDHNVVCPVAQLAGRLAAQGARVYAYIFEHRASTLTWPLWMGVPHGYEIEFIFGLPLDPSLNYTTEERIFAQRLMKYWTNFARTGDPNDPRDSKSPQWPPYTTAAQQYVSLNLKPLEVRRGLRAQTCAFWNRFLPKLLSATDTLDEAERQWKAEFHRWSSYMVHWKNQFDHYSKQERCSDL
Assay: biochemical
Type: biochemical
Details: Table 1; IC50 ± SEM
Here the recorded IC50 is given for each entry.
Report the value in nM with no unit label.

Recorded results for 2 compounds are shown here.
CCCCCCN(Cc1ccc(C#Cc2ccc(CCCC)cc2)cc1)C(=O)c1ccc(O)c(C(=O)O)c1    485
CCCCCCN(Cc1ccc(C#Cc2ccc(CCCC)cc2)cc1)c1ccc(F)c(C(=O)O)c1    275

Next compound, please.
Data request, read-out IC50, for `CCCCCCN(Cc1ccc(C#Cc2ccc(CCCC)cc2)cc1)c1ccc(O)c(C(=O)O)c1`
294

###

Target: hMAO-B (Homo sapiens, UniProt P27338)
Construct: purchased Sigma Aldrich; host or cells: BTI-TN-5B1-4 baculovirus-infected insect cells
Sequence (P27338 whole entry): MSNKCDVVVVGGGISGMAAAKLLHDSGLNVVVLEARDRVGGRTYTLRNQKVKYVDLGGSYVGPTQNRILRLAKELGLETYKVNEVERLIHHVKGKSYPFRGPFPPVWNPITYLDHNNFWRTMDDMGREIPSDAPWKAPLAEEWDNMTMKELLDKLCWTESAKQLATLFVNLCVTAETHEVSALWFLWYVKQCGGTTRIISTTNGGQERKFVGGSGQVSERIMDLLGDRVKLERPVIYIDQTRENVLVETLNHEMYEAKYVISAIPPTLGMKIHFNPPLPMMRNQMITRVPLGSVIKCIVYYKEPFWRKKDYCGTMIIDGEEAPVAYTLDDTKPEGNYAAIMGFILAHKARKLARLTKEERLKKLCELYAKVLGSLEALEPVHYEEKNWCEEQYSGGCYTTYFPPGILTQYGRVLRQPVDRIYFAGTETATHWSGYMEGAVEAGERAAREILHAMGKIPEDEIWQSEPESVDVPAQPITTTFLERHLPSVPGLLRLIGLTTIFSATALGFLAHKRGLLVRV
Assay: biochemical
Conditions: residual activity at 10 µM; Mini Library screen, Table S1; read-out: hMAO-B (RA [%])
Protocol: The effects of the compounds on hMAO-A and hMAO-B were investigated using a fluorimetric assay, following a method previously described in the literature. […] After preincubation, the reaction was started by adding final concentrations of 200 µM Amplex Red reagent, 2 U/mL HRP, and 1 mM p-tyramine hydrochloride. Resorufin production was quantified based on the fluorescence produced (λex = 530 nm; λem = 590 nm) at 37 °C over a 20 min period. […]
Strictly below 60% in remaining activity at 10 µM: Satisfied. Otherwise: Not satisfied.

CCCCc1nc2ccn(Cc3ccccc3)c(=O)c2n1Cc1ccc(-c2ccccc2-c2nnn[nH]2)cc1 [MS-ML03]    Not satisfied
C1=C(c2ccccc2)CCN(CCCCc2c[nH]c3ccccc23)C1 [MS-ML10]    Not satisfied

Report whether reported remaining activity at 10 µM is lower than 60% (strictly) for CCCCCCN(Cc1ccc(C#Cc2ccc(CCCC)cc2)cc1)C(=O)c1ccc(O)c(C(=O)O)c1 [MS-ML25]
Not satisfied

Repeat with O=C(OC[C@H]1CCCN1c1ccnc2ncnn12)c1ccc(Oc2ccccc2)nc1 [MS-ML31]
Satisfied

Repeat with O=C(Nc1ccc(Oc2ccncc2)cc1)Nc1cc(C(F)(F)F)ccc1-n1cncn1 [MS-ML80]
Satisfied
